Cited source: ChEMBL document CHEMBL4004816

Entries and their IC50 values follow.
System: PC-3
assay.details: Cytotoxicity against human PC3 cells assessed as growth inhibition after 72 hrs by SRB assay
Format: functional, cell-based
condition.details: PC-3, 72 h
Lab book: enter the figure in µM, no units written.

COc1ccc(/C=C\C(=O)O[C@@H](C)[C@@H]2CC[C@H]([C@H](O)[C@H]3CC=CC(=O)O3)O2)cc1: 10

Please look at the following compound next.
Exercise: Given the entry CC[C@]1(O)C[C@@H]2CN(CCc3c([nH]c4ccccc34)[C@@](C(=O)OC)(c3cc4c(cc3OC)N(C)[C@H]3[C@@](O)(C(=O)OC)[C@H](OC(C)=O)[C@]5(CC)C=CCN6CC[C@]43[C@@H]65)C2)C1 , report its measured IC50.
Key: 0.001

* * *

System: PC-3
assay.details: Cytotoxicity against human PC3 cells assessed as growth inhibition after 72 hrs by SRB assay
Type: functional, cell-based
condition.details: PC-3, 72 h
parameter: pIC50
Scale: negative log10 of molar concentration, which is what pIC50 denotes.

COc1ccc(/C=C/C(=O)O[C@@H](C)[C@@H]2CC[C@H]([C@H](O)[C@H]3CC=CC(=O)O3)O2)cc1: 5.12

Exercise: Would you mind telling me what pIC50 value was observed for C[C@H](OC(=O)/C=C\c1ccc(O)cc1)[C@@H]1CC[C@H]([C@H](O)[C@H]2CC=CC(=O)O2)O1 ?
Key: 5.06

* * *

# key: entry, value: pIC50
Test system: HeLa
assay.details: Cytotoxicity against human HeLa cells assessed as growth inhibition after 72 hrs by SRB assay
Assay type: functional, cell-based
pIC50 is a log-scale quantity: -log10 of the concentration expressed in molar.

Exercise: Requested field: pIC50. Item: COc1ccc(/C=C\C(=O)O[C@@H](C)[C@@H]2CC[C@H]([C@H](O)[C@H]3CC=CC(=O)O3)O2)cc1
Key: 5.38

Exercise: Name the recorded pIC50 for C[C@H](OC(=O)/C=C/c1ccc(O)cc1)[C@@H]1CC[C@H]([C@H](O)[C@H]2CC=CC(=O)O2)O1 .
Key: 5.02

* * *

Test system: HeLa
assay.details: Cytotoxicity against human HeLa cells assessed as growth inhibition after 72 hrs by SRB assay
Type: functional, cell-based
Quick reference: IC50 of the listed items.
Enter your answer as a number in µM; do not include the unit.

Record excerpt, results attached:
COc1ccc(/C=C/C(=O)O[C@@H](C)[C@@H]2CC[C@H]([C@H](O)[C@H]3CC=CC(=O)O3)O2)cc1: 6
CC[C@]1(O)C[C@@H]2CN(CCc3c([nH]c4ccccc34)[C@@](C(=O)OC)(c3cc4c(cc3OC)N(C)[C@H]3[C@@](O)(C(=O)OC)[C@H](OC(C)=O)[C@]5(CC)C=CCN6CC[C@]43[C@@H]65)C2)C1 [VINBLASTINE]: 0.001
C[C@H](OC(=O)/C=C\c1ccc(O)cc1)[C@@H]1CC[C@H]([C@H](O)[C@H]2CC=CC(=O)O2)O1: 3.3

Attention now turns to another entry.
Exercise: // lookup IC50 for C[C@H](OC(=O)/C=C/c1ccc(O)c(O)c1)[C@@H]1CC[C@H]([C@H](O)[C@H]2CC=CC(=O)O2)O1
Key: 6.9
